All figures here come from ChEMBL document CHEMBL5352424.

A collection of compounds and their measured Ep
Test: Oxidation potential of compound at pH 7.3 by differential pulse voltammetry analysis
Type: physicochemical
Please state the figure in mV; there is no need to write the unit.

Inquiry: Please give measured Ep of the following entry: N#C/C(=C\C=C\c1ccc(O)c(O)c1)C(=O)N1CCCCC1
Reply text: 154

Further cases:
Inquiry: Please give measured Ep of the following entry: N#C/C(=C\C=C\c1ccc(O)c(O)c1)C(=O)O
Reply text: 144

Inquiry: Please give measured Ep of the following entry: O=C(O)/C=C/C=C/c1ccc(O)c(O)c1
Reply text: 129

Inquiry: Please give measured Ep of the following entry: O=C(/C=C/C=C/c1ccc(O)c(O)c1)N1CCCCC1
Reply text: 113

Inquiry: Please give measured Ep of the following entry: O=C(/C=C/C=C/c1ccc(O)c(O)c1)NCCc1ccccc1
Reply text: 124

Inquiry: Please give measured Ep of the following entry: N#C/C(=C\C=C\c1ccc(O)c(O)c1)C(=O)Nc1ccccc1
Reply text: 161
